Below, each entry is listed with its recorded cell viability, % of control (lower = more cytotoxic).
# Test Details: High-throughput drug toxicity screening in the BPDCN cell line Gen2.2 (AID 1224824);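 note: cells exposed to compounds for 48 h before reading; 100% = DMSO and 0% = bortezomib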
# Details: Gen2.2 BPDCN cells; at 45.8 µM (top of the series) unless noted
Entry rule: numbers only, all in %.

[
  {
    "Compound": "Cc1nnc(C(C)C)n1C1C[C@H]2CC[C@@H](C1)N2CC[C@H](NC(=O)C1CCC(F)(F)CC1)c1ccccc1 (stereo partly specified)",
    "Value Measured": 75.3
  },
  {
    "Compound": "CNC(=O)c1ccccc1Sc1ccc2c(C=Cc3ccccn3)n[nH]c2c1",
    "Value Measured": 311
  },
  {
    "Compound": "CC=CCC(C)C(O)C1C(=O)NC(CC)C(=O)N(C)CC(=O)N(C)C(CC(C)C)C(=O)NC(C(C)C)C(=O)N(C)C(CC(C)C)C(=O)NC(C)C(=O)NC(C)C(=O)N(C)C(CC(C)C)C(=O)N(C)C(CC(C)C)C(=O)N(C)C(C(C)C)C(=O)N1C (stereo unspecified)",
    "Value Measured": 8.39
  },
  {
    "Compound": "OC[C@H]1O[C@@H](Oc2cc(O)cc(C=Cc3ccc(O)cc3)c2)[C@H](O)[C@@H](O)[C@H]1O",
    "Value Measured": 71.3
  },
  {
    "Compound": "Cc1c(NC(=O)c2ccc(C(C)(C)C)cc2)cccc1-c1cn(C)c(=O)c(Nc2ccc(C(=O)N3CCOCC3)cc2)n1",
    "Value Measured": 29.7
  }
]

Now consider a different compound.
Input: Give the value of cell viability, % of control (lower = more cytotoxic) reported for the following: COc1cc2c(cc1OC)CN(CCc1ccc(NC(=O)c3cc(OC)c(OC)cc3NC(=O)c3cnc4ccccc4c3)cc1)CC2
Output: 115

---

# Test Details: Quantitative High-Throughput drug screen in 47 multiple myeloma cell lines against the NCATS MIPE library collection: OCIMY5_PLB cell viability assay (AID 1918988); note: nearly all actives have a fitted effect of over 65% in size
# Details: OCI-MY5 myeloma viability, ATP luminescence, 48 h; series mostly up to 45.8 µM
Records with an inconclusive call do not appear. Activity calls are given as the source filed them. Calls come from the whole dose curve; as a rule, active = well fitted cell-killing curve with a large enough effect; inconclusive = small, poorly fitted or top-dose-only effect, or effect the other way; inactive = no such curve, though single readings can be large or run the other way.
# valid calls are active, inactive; nothing else

Input: How was O=c1c(-c2ccc(O)cc2)coc2cc(O)ccc12 classified in this test?
Output: active

Input: How was COc1ccc(-c2cc(=O)c3c(O)cc(O)cc3o2)cc1O classified in this test?
Output: active

---

# Test Details: Quantitative High-Throughput drug screen in 47 multiple myeloma cell lines against the NCATS MIPE library collection: PE2_PLB cell viability assay (AID 1919869); note: nearly all actives have a fitted effect of over 35% in size
# Details: PE2_PLB myeloma cells viability, ATP luminescence, 48 h; series mostly up to 45.8 µM
Inconclusive results are not listed. The source made the active and inactive calls. Calls follow the shape of the dose curve; as a rule, active = well fitted cell-killing curve with a large enough effect; inconclusive = small, poorly fitted or top-dose-only effect, or effect the other way; inactive = no such curve, though single readings can be large or run the other way.
# valid calls are 1 for active, 0 for inactive; nothing else

Worked cases, answers included:
[
  {
    "Compound": "O=C(CCN1CCN(C(=O)OCc2cc(Cl)cc(Cl)c2)CC1)c1ccc2[nH]c(=O)oc2c1",
    "Category": 0
  },
  {
    "Compound": "CCC(=O)O[C@]1(C(=O)CO)CC[C@H]2[C@@H]3CCC4=CC(=O)CC[C@]4(C)[C@@H]3CC[C@@]21C",
    "Category": 0
  },
  {
    "Compound": "C[C@]12CCC3c4ccc(O)cc4CCC3C1CCC2=O (some centres undefined)",
    "Category": 0
  }
]

Input: How was COc1ccc(-c2nc(N3CCOCC3)c3sc(CN(C)c4ncc(C(=O)NO)cn4)cc3n2)cn1 classified in this test?
Output: 1

Input: How was CC(=Cc1ccccc1)C=C1SC(=S)N(CC(=O)O)C1=O classified in this test?
Output: 0

---

# Test Details: Quantitative High-Throughput drug screen in 47 multiple myeloma cell lines against the NCATS MIPE library collection: ARD_JJKsccE7 cell viability assay (AID 1918929;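 for viability: 100% = DMSO-only wells and 0% = media-only wells without cells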)
# Details: ARD myeloma cell line viability, CellTiter-Glo, 48 h; series mostly up to 45.8 µM
Inconclusive results are not listed. Activity calls are given as the source filed them. The call rests on the fitted dose curve; in most records, active means well fitted cell-killing curve with a large enough effect; inconclusive means small, poorly fitted or top-dose-only effect, or effect the other way; inactive means no such curve, though single readings can be large or run the other way.
# valid calls are active, inactive; nothing else

Worked cases, answers included:
[
  {
    "Smiles String": "N#CC1(c2ccc(NC(=O)c3cccnc3NCc3ccncc3)cc2)CCCC1",
    "Category": "inactive"
  },
  {
    "Smiles String": "Cc1ccc(Nc2cc(-c3cccc(N4C(=O)c5ccccc5C4=O)c3)ncn2)cc1NS(C)(=O)=O",
    "Category": "active"
  },
  {
    "Smiles String": "c1ccc2c(Cc3c[nH]c4ccccc34)c[nH]c2c1",
    "Category": "inactive"
  }
]

Input: How was CCn1cc(C(=O)O)c(=O)c2ccc(C)nc21 classified in this test?
Output: inactive

Input: How was COCCCCC(=NOCCN)c1ccc(C(F)(F)F)cc1 classified in this test?
Output: inactive

Input: How was CC(C)(C)C(=O)Oc1ccc2c(c1)nc(NC(=O)c1cccc([N+](=O)[O-])c1)n2CCCO classified in this test?
Output: inactive

Input: How was Cc1nc(N)sc1-c1ccnc(Nc2ccc(N3CCOCC3)cc2)n1 classified in this test?
Output: active

---

# Test Details: qHTS for differential inhibitors of proliferation of Plasmodium falciparum line GB4 (AID 1816);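 note: parasite growth measured after 72 h incubation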
# Details: Plasmodium falciparum GB4 proliferation inhibition; series mostly up to 28.7 µM
Records with an inconclusive call do not appear. Activity calls are given as the source filed them. Calls follow the shape of the dose curve; as a rule, active = well fitted curve in the direction sought with a large enough effect; inconclusive = small, poorly fitted or top-dose-only effect, or another doubt; inactive = no such curve, though single readings can be large or run the other way.
# valid calls are active, inactive; nothing else

Worked cases, answers included:
[
  {
    "Compound": "Clc1ccc(Cn2c(CN3CCCC3)nc3ccccc32)cc1",
    "Category": "active"
  },
  {
    "Compound": "CCN1CCC[C@H]1CNC(=O)c1cc(S(N)(=O)=O)ccc1OC",
    "Category": "inactive"
  },
  {
    "Compound": "CCN(CC)CCOC(=O)c1ccc(N)cc1",
    "Category": "inactive"
  },
  {
    "Compound": "O=c1cc(-c2ccc(O)cc2)oc2cc(O)cc(O)c12",
    "Category": "active"
  },
  {
    "Compound": "CN(C)CCC(c1ccccc1)c1ccccn1 (stereo not drawn)",
    "Category": "active"
  }
]

Input: How was CCN(CC)CCNC(=O)c1ccc(N)cc1 classified in this test?
Output: inactive

Input: How was O=c1c(-c2ccc(O)cc2)coc2cc(O)ccc12 classified in this test?
Output: inactive

Input: How was CCN(CC)C(=O)c1ccc(O)c(OC)c1 classified in this test?
Output: inactive

Input: How was CC(=O)c1ccc(S(=O)(=O)NC(=O)NC2CCCCC2)cc1 classified in this test?
Output: inactive

Input: How was NCCS classified in this test?
Output: inactive

Input: How was CCCNC(=O)NS(=O)(=O)c1ccc(Cl)cc1 classified in this test?
Output: inactive

Input: How was CCCCC1C(=O)N(c2ccccc2)N(c2ccccc2)C1=O classified in this test?
Output: active

Input: How was NC(N)=Nc1nc(CSCC/C(N)=N/S(N)(=O)=O)cs1 classified in this test?
Output: inactive

---

# Test Details: qHTS of pediatric cancer cell lines to identify multiple opportunities for drug repurposing: Primary screen for Rh41 cells (AID 1347108); note: nearly all actives have a fitted effect of over 70% in size
# Details: Rh41 rhabdomyosarcoma viability, CellTiter-Glo luminescence, 48 h; series mostly up to 46 µM
# Protocol: Drug repurposing or repositioning has been offered as a strategy for drug development in oncology programs. This approach has special potential for childhood cancers and other rare or orphan diseases, where the expected return on new drug development has been a disincentive to pharmaceuticals. […] We employed a titration-based paradigm (quantitative high-throughput screening or qHTS), where all compounds were tested at multiple concentrations for their effect on cell viability. […]
Inconclusive results are not listed. Active and inactive are the calls of the source. Calls come from the whole dose curve; as a rule, active = well fitted cell-killing curve with a large enough effect; inconclusive = small, poorly fitted or top-dose-only effect; inactive = no such curve, though single readings can be large or run the other way.
# valid calls are active, inactive; nothing else

[
  {
    "Smiles String": "CCN(CC)CCNC(=O)c1ccc(N)cc1",
    "Category": "inactive"
  },
  {
    "Smiles String": "COc1ccc2cccc(CCNC(C)=O)c2c1",
    "Category": "inactive"
  }
]

Consider now this further compound.
Input: How was CC(C)n1nc(-c2ccc3oc(N)nc3c2)c2c(N)ncnc21 classified in this test?
Output: active

---

# Test Details: Confirmatory screen NINDS Rhodamine qHTS for Zika virus inhibitors (AID 1347161); note: nearly all actives have a fitted effect of over 60% in size
# Details: purified enzyme assay, Rhodamine110 substrate fluorescence, 15 min; series mostly up to 114 µM
Results filed as inconclusive are left out. Calls of active or inactive are those of the source. Calls come from the whole dose curve; as a rule, active = well fitted inhibition curve with a large enough effect; inconclusive = small, poorly fitted or top-dose-only effect; inactive = no such curve, though single readings can be large or run the other way.
# valid calls are 1 (yes) = active, 0 (no) = inactive; nothing else

[
  {
    "Compound": "CS(=O)c1ccc(-c2nc(-c3ccc(F)cc3)c(-c3ccncc3)[nH]2)cc1 (stereo unspecified)",
    "Category": "0 (no)"
  },
  {
    "Compound": "O=c1c(O)c(-c2ccc(O)cc2)oc2cc(O)cc(O)c12",
    "Category": "0 (no)"
  },
  {
    "Compound": "CC1CCC(C(=O)N(c2cc(C#CC(C)(C)C)sc2C(=O)O)C2CCC(O)CC2)CC1 (stereo unspecified)",
    "Category": "1 (yes)"
  }
]

Input: How was Cc1cc(OCCCc2c(C(=O)O)n(Cc3cccnc3)c3c(-c4c(COc5ccc(N6CCN([S+](C)(=O)[O-])CC6)cc5)nn(C)c4C)cccc23)cc(C)c1Cl classified in this test?
Output: 1 (yes)

Input: How was CC(C)(C)OC(=O)N[C@H]1CCCCCC=C[C@@H]2C[C@@]2(C(=O)NS(=O)(=O)C2CC2)NC(=O)[C@@H]2C[C@@H](OC(=O)N3Cc4cccc(F)c4C3)CN2C1=O classified in this test?
Output: 1 (yes)

Input: How was NC(=O)c1cccc2[nH]c(-c3ccc([C@H]4CCCN4)cc3F)nc12 classified in this test?
Output: 0 (no)
